# test method notes: Biodistribution studies
# Format: in vivo
# condition notes: female, BALB/c nude, mouse, muscle, iv, total radioactivity; 12 h postinjection, ~7.4 MBq i.v., n = 5, mean ± SD; read-out: Muscle uptake
Where a SMILES comes first, the peptide text is derived from it. Bridges are numbered along the chain shown (N, C = ends).
outcome measure: tissue uptake at 12 h (%ID/g)
Answers are plain numbers, in %ID/g.

Entry N=C(N)NCCC[C@@H]1NC(=O)CNC(=O)[C@H](CC(N)=O)NC(=O)[C@@H](NC(=O)CNC(=O)CNC(=O)[C@@H](N)Cc2ccc(O)cc2)CSSC[C@@H](C(=O)O)NC1=O [^99mTc-NGR, metal not drawn] (H-YGGCNGRC-OH; disulfide 4-8) has what tissue uptake at 12 h?
0.39
